Collected literature values of Ki measured for Vascular endothelial growth factor receptor 2 (Homo sapiens, UniProt P35968).
Only the number, expressed in nM, is required.

So what Ki did Cc1ccc(OCCNc2nc(Nc3cc(C)[nH]n3)cc(C)c2C#N)cn1 get with Vascular endothelial growth factor receptor 2 (Homo sapiens, UniProt P35968)?
590

So what Ki did Cc1cc(NC(=O)c2c(NCc3ccncc3)ncn2C)ccc1C(F)(F)F get with Vascular endothelial growth factor receptor 2 (Homo sapiens, UniProt P35968)?
160

So what Ki did O=C(N[C@H](CO)c1ccc(F)c(Cl)c1)c1cc(-c2n[nH]cc2-c2cccc(Cl)c2)c[nH]1 get with Vascular endothelial growth factor receptor 2 (Homo sapiens, UniProt P35968)?
3900

So what Ki did c1ccc(CCNc2ccnc3oc4ccccc4c23)cc1 get with Vascular endothelial growth factor receptor 2 (Homo sapiens, UniProt P35968)?
2010

So what Ki did COc1ccc2c(Oc3ccc(NC(=O)c4c(C)n(C)n(-c5ccccc5)c4=O)c(OC)c3)ccnc2c1 get with Vascular endothelial growth factor receptor 2 (Homo sapiens, UniProt P35968)?
702

So what Ki did c1cc2n[nH]cc2cc1-c1c[nH]nn1 get with Vascular endothelial growth factor receptor 2 (Homo sapiens, UniProt P35968)?
3550

So what Ki did Clc1ccc(Cn2cc(-c3ccc4[nH]ncc4c3)nn2)cc1 get with Vascular endothelial growth factor receptor 2 (Homo sapiens, UniProt P35968)?
2710

So what Ki did N#Cc1cnc2cc(-c3ccc(CN4CCOCC4)cc3)ccc2c1N[C@@H]1C[C@H]1c1ccccc1 get with Vascular endothelial growth factor receptor 2 (Homo sapiens, UniProt P35968)?
170

So what Ki did COc1cc2c(N[C@@H]3C[C@H]3c3ccccc3)c(C#N)cnc2cc1OCCCc1cccnc1 get with Vascular endothelial growth factor receptor 2 (Homo sapiens, UniProt P35968)?
99

So what Ki did CNc1cncc(-c2c[nH]c(=O)c(NC(=O)c3ccc(N4CCC[C@H]4CN4CCCC4)cc3)c2)n1 get with Vascular endothelial growth factor receptor 2 (Homo sapiens, UniProt P35968)?
430

So what Ki did COc1cc2nccc(Oc3ccc(-c4ccc(Cc5ccccc5)nn4)cc3F)c2cc1OC get with Vascular endothelial growth factor receptor 2 (Homo sapiens, UniProt P35968)?
56

So what Ki did c1cn2c(NC3CCCCC3)c(-c3ccc4[nH]ncc4c3)nc2s1 get with Vascular endothelial growth factor receptor 2 (Homo sapiens, UniProt P35968)?
5340

So what Ki did c1ccc(-c2c(-c3ccc(OCCN4CCCC4)cc3)[nH]c3ncnc(NCC4SCCS4)c23)cc1 get with Vascular endothelial growth factor receptor 2 (Homo sapiens, UniProt P35968)?
380

So what Ki did c1ccc(CNc2ccnc3oc4ccccc4c23)cc1 get with Vascular endothelial growth factor receptor 2 (Homo sapiens, UniProt P35968)?
470

So what Ki did COc1cc2c(Oc3ccc(-c4cnc(Nc5ccc(F)cc5)n(C)c4=O)cc3F)ccnc2cc1OCCCN1CCOCC1 get with Vascular endothelial growth factor receptor 2 (Homo sapiens, UniProt P35968)?
139

So what Ki did COc1ccc2c(Oc3ccc(NC(=O)c4c(-c5csc(C)n5)n(C)n(-c5ccccc5)c4=O)nc3)ccnc2c1 get with Vascular endothelial growth factor receptor 2 (Homo sapiens, UniProt P35968)?
588
